- Assay Name: gradient 5% acetonitrile 3 min, to 50% in 2 min, to 85% in 15 min, held 3 min, 100 µL/min
- Experimental Context: column: Zorbax Extend-C18 2.1 x 50 mm; eluents: water / acetonitrile, 0.1% formic acid
Measured Quantity: RP-LC retention time (s)

Would you kindly share the measured RP-LC retention time for `Cc1cc(C)n(CCNC(=O)CSc2ccc(F)cc2)n1` ?
675

Item under review: Cc1ccnc(NS(=O)(=O)c2ccc(NC(=O)C3COc4ccccc4O3)cc2)n1 (stereo not given) . Reported RP-LC retention time?
711

What measured RP-LC retention time goes with `CC(C)C(=O)N1CCc2cc(C(=O)N(C)C)ccc21` ?
678

Could you share which RP-LC retention time value was measured for `CC(C)N1C(=O)c2cccnc2Sc2cc(NC(=O)Cc3ccccc3F)ccc21` ?
858

Data request, read-out RP-LC retention time, for `Cc1nn(-c2ccc(-c3noc(C4CC4)n3)cc2)cc1C(=O)NC1CCCC1`
940

Find the recorded RP-LC retention time belonging to `Cc1ccc(C2=NC3(CCN(C(=O)c4ccccc4C)CC3)ON2)cc1` and report it.
855

Endpoint output: RP-LC retention time of `Clc1ccc(-c2noc(Cc3nnc(-c4ccccc4)o3)n2)cc1` . Value?
1050

Item CCOCCCNC(=O)C1CCCN(C(=O)c2cc(C)cc(C)c2)C1 (stereo not given) has what recorded RP-LC retention time?
743

Which measured RP-LC retention time value corresponds to O=C(c1ccccc1)N1CCN(C(=O)c2nnn3c2COC(c2ccc(Cl)cc2)C3)CC1 (stereo not given) ?
873

// query RP-LC retention time value for entry CN1C(=O)c2cc(C(=O)NCc3ccc(F)cc3)nn2CC1(C)C(=O)NC1CCCCCC1 (stereo not given)
840

* * *

- Assay Name: gradient 5% acetonitrile 3 min, to 50% in 2 min, to 85% in 15 min, held 3 min, 100 µL/min
- Experimental Context: column: Zorbax Extend-C18 2.1 x 50 mm; eluents: water / acetonitrile, 0.1% formic acid
Measured Quantity: RP-LC retention time (s)

If you can, please state the reported RP-LC retention time value of O=C(Nc1cccc(F)c1)C1CC(=O)N(c2ccc3c(c2)CCN3C(=O)C2CCC2)C1 (centres undefined) .
839

Item under review: `Cn1cc(-c2ccc3c(c2)CCN3C(=O)Cc2cccc(C(F)(F)F)c2)c2c(N)ncnc21` . Reported RP-LC retention time?
867

Item under review: `O=C(NCCc1ccco1)C1CCN(Cc2cc3ccccc3n2Cc2ccccc2Cl)CC1` . Reported RP-LC retention time?
841

// returns reported RP-LC retention time for input `Cc1ccc(-c2nc3cnccn3c2Nc2cccc(C(=O)O)c2)cc1`
711

Which RP-LC retention time is listed for CC(C)N1C(=O)C2(CCCCC2)C1C(=O)N1CCCCC1 (centres undefined) ?
722

(I) O=C1[C@H]2CN(Cc3ccc(C(F)(F)F)cc3)C[C@H]2C(=O)N1CCc1ccccc1
(II) O=C(NCc1cccc(C(F)(F)F)c1)C1CCN(c2cc(N3CCOCC3)ncn2)CC1
For this pair, I and II , which shows a numerically higher RP-LC retention time? Please respond with the label that marks your chosen entry.
I
(I: 984 s, II: 672 s)

(1) Cc1ccc(-c2csc3c(=O)n(CC(=O)N4CCOc5ccc(C)cc54)cnc23)cc1
(2) Cc1cc(N2CCOCC2)nc(N2CCN(C(=O)c3ccc(-c4ccccc4)cc3)CC2)n1
Which of the two items, 1 and 2 , has the greater recorded RP-LC retention time? Field: selected label. Fill in the label of the entry you choose.
1
(1: 1120 s, 2: 720 s)

(P) COC(=O)C1=CN(c2ccc(N(C)C)cc2)c2cc(F)ccc2S1(=O)=O
(Q) O=C(CCC(=O)N1CCSc2ccccc21)N1CCN(c2ccccn2)CC1
Kindly identify which of P and Q has the larger recorded RP-LC retention time value. Choose, then provide that item's label.
P

* * *

- Assay Name: gradient 5% acetonitrile 3 min, to 50% in 2 min, to 85% in 15 min, held 3 min, 100 µL/min
- Experimental Context: column: Zorbax Extend-C18 2.1 x 50 mm; eluents: water / acetonitrile, 0.1% formic acid
Measured Quantity: RP-LC retention time (s)

Recorded results for 10 compounds are shown here.
Find the recorded RP-LC retention time belonging to Cc1cc(C(=O)N2CCCC2c2nncn2C(C)C)n[nH]1 (stereo not given) and report it.
579

Reported RP-LC retention time, compound `COc1ccccc1N1CCN(c2cc(SCC(=O)Nc3cccc(Cl)c3F)ncn2)CC1` : ____
1270

Entry under review: CC(NC(=O)CCc1ccc2[nH]ccc2c1)c1ccccc1 (stereo not given) . Reported RP-LC retention time?
812

Sample `COCCn1cc(C(=O)Nc2ccc(F)cc2F)c2nn(-c3ccccc3)c(=O)c-2c1` — what was its RP-LC retention time?
1010

Would you kindly share the measured RP-LC retention time for `Cc1cc(=O)n(CC(=O)Nc2cccc(Cl)c2)c(-c2ccccc2)n1` ?
1080

Requested field: RP-LC retention time. Item: COc1ccc(C(O)CN2CCN(C3CCCCC3)CC2)cc1 (stereo not given)
540

If you can, please state the reported RP-LC retention time value of `COc1ccc(C(=O)N2CCC(COc3ccc(C(=O)NC(C)C)cc3)CC2)cc1` .
820

What measured RP-LC retention time goes with `O=S(=O)(NCCc1ccccc1)c1ccccc1-c1nc(-c2ccccc2)no1` ?
1210

# query: RP-LC retention time of entry `Cc1cc(C)cc(-c2nnc(Cc3nc(-c4ccncc4)no3)o2)c1`
886

Quick one: RP-LC retention time for `Cc1ccc(-c2cc3c(=O)n(Cc4noc(CN5CCOCC5)n4)ccn3n2)c(C)c1` ?
792

(A) CCOc1ccc(C(=O)N2CCC3(CC2)NC(=O)c2cc(C)ccc2N3CC)cc1
(B) CCCN(C(=O)c1ccccc1F)c1nc(-c2ccc(C)cc2)cs1
Name the one with the greater RP-LC retention time value, either A or B as given. When you have decided, please share the label of that item.
B

(a) Cc1oc2cc3oc(=O)c(CC(=O)N4CCC(C(N)=O)CC4)c(C)c3cc2c1C
(b) COC(=O)c1ccc2c(=O)n(-c3cccc(Cl)c3)c(N3CCOCC3)nc2c1
Field: lower RP-LC retention time | Options: a / b Pick one; state its label.
a
(a: 697 s, b: 998 s)

* * *

- Assay Name: gradient 5% acetonitrile 3 min, to 50% in 2 min, to 85% in 15 min, held 3 min, 100 µL/min
- Experimental Context: column: Zorbax Extend-C18 2.1 x 50 mm; eluents: water / acetonitrile, 0.1% formic acid
Measured Quantity: RP-LC retention time (s)

Need RP-LC retention time, item `O=C1CCCc2cc(S(=O)(=O)NCCCN3CCN(Cc4ccccc4)CC3)ccc2N1`
581

Look up RP-LC retention time for this compound: `CCOCCCNC(=O)CN1C(=O)CCn2nc(-c3cn(C)c4ccccc34)cc21`
714

I'd like to know its RP-LC retention time. The compound in question is CCn1cc(CN2CCC(N3C(=O)C4(CCCCC4)C3c3ccccc3)CC2)cn1 (stereo not given)
681

I would be grateful if you could share the reported RP-LC retention time for `CCC(C)(C)NC(=O)Cn1nc(C)c2nn(-c3ccccc3)c(C)c2c1=O` .
860

(1) CCCCCCNCc1ccc2c(c1)n(C)c(=O)n2C
(2) COc1ccc(C)cc1NC(=O)NC1CCN(c2ccc(F)c(C)c2)C1=O (stereo not given)
Between 1 and 2 , whose measured RP-LC retention time reads higher? Please indicate the selected item by its label.
2
(2: 914 s, 1: 604 s)

* * *

- Assay Name: gradient 5% acetonitrile 3 min, to 50% in 2 min, to 85% in 15 min, held 3 min, 100 µL/min
- Experimental Context: column: Zorbax Extend-C18 2.1 x 50 mm; eluents: water / acetonitrile, 0.1% formic acid
Measured Quantity: RP-LC retention time (s)

Form field: reported RP-LC retention time of `O=C(Cc1cccs1)NCCS(=O)(=O)N1CCN(c2ncccn2)CC1`
653

// lookup RP-LC retention time for `CCOc1ccc(NC(=O)c2cc3c(=O)n(CC(C)C)c4ccccc4n3n2)cc1`
1150

What RP-LC retention time value was documented for this compound, `COc1ccc(-c2cc(C(F)(F)F)n3nc(C(=O)O)cc3n2)cc1` ?
851

Endpoint output: RP-LC retention time of `O=C([C@@H]1C[C@H](F)CN1C(=O)c1cc(F)ccc1F)N1CCCCC1` . Value?
700

What does the data say about its RP-LC retention time? Entry: `O=C(CNC(=O)c1ccc(=O)[nH]c1)NCC1CCCCC1`
599

I am curious: what RP-LC retention time value has been reported for CCc1ccc(NC(=O)N2CCCC(C)(C(=O)NCc3ccccc3)C2)cc1 (centres undefined) ?
878

Can you share its RP-LC retention time? I mean this compound: `O=C(NCc1cccc(F)c1)C1CCN(c2cncnc2N2CCOCC2)CC1`
614

RP-LC retention time for `CC(=O)Nc1c(C)noc1/C=C\c1ccc(C)c(S(=O)(=O)N2CCN(c3ccccn3)CC2)c1` ?
666

Given COc1ccc(S(=O)(=O)N2CCCC(C(=O)Nc3ccc4c(c3)OCO4)C2)cc1OC (centres undefined) , state its recorded RP-LC retention time.
838
